Experiment: CCTE_Deisenroth_AIME_384WELL_CTox_Inactive: Cytotoxicity Assessment (CTOX) in CCTE's 384-well Estrogen Receptor Transactivation Assay without AIME metabolic competence (metabolism negative), Deisenroth Lab (AID 2284039);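 also: cell viability via live-cell protease substrate cleaved to fluorescent probe; cells exposed 24 h to medium preincubated 2 h with alginate-water beads without S9; loss of fluorescence signal means loss of viability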
Results filed as inconclusive are left out. Active and inactive are the calls of the source. The calls were made as follows: active = hit-call score of the fitted dose curve at least 0.9, where 1 is the maximum; inconclusive = response in the unintended direction; inactive = score below 0.9.
Bench note: report the call from active, inactive

Data request: Would you mind telling me which call this test gave `CCOC(=O)C1=NOC(c2ccccc2)(c2ccccc2)C1` ?
Data returned: inactive

Data request: Outcome logged for `O=C(O)/C=C/c1ccccc1` in this assay:
Data returned: inactive

Data request: Query: recorded result category for `CCCCCCCCCCCCc1ccc(O)cc1` in this test
Data returned: active

Data request: Hi team, can someone confirm the assay call for `CC(C)(C)N` ?
Data returned: inactive

Data request: Identify the outcome logged in this assay for the compound shown: `O=C(O)c1cc(O)c2ccccc2c1O`
Data returned: active

Data request: Give the logged outcome of this assay for the following compound: `CCCCCCCCCC(C)=O`
Data returned: inactive

Data request: What was the test verdict on `COC(=O)c1ccccc1C` ?
Data returned: inactive

Data request: Name the outcome recorded for `C[Si](C)(C)N[Si](C)(C)C` in the assay.
Data returned: inactive

Data request: Recorded test call requested for `CC(CCC(=O)O)(c1ccc(O)cc1)c1ccc(O)cc1`
Data returned: inactive

Data request: Field: outcome | Entry: `CCCCCCCCCCCCCCCCCCOS(=O)(=O)O`
Data returned: inactive

###

Test: CCTE_Deisenroth_AIME_384WELL_CTox_Inactive: Cytotoxicity Assessment (CTOX) in CCTE's 384-well Estrogen Receptor Transactivation Assay without AIME metabolic competence (metabolism negative), Deisenroth Lab (AID 2284039);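 also: cell viability via live-cell protease substrate cleaved to fluorescent probe; cells exposed 24 h to medium preincubated 2 h with alginate-water beads without S9; loss of fluorescence signal means loss of viability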
Results filed as inconclusive are left out. Calls of active or inactive are those of the source. Rule for the calls: active = hit-call score of the fitted dose curve at least 0.9, where 1 is the maximum; inconclusive = response in the unintended direction; inactive = score below 0.9.
Pick from t = active, f = inactive when you respond.

Data request: How was C=C(C)C1CC=C(C)CC1 (stereo not drawn) classified in this test?
Data returned: f

Data request: In this assay, the call recorded for `O=c1c(O)c(-c2ccc(O)cc2O)oc2cc(O)cc(O)c12` was what?
Data returned: t

Data request: Record lookup: outcome of this test for `O=C(Oc1ccccc1)c1ccccc1O` ?
Data returned: f

###

Test: CCTE_Shafer_MEA_acute_interburst_interval_mean: CCTE's Neural Acute Assay for Mean Interburst Interval, Shafer Lab (AID 2284016);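 also: percent change of mean interburst interval versus each well's own pre-dose baseline; curves fitted for decrease in interburst interval relative to DMSO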
Active and inactive are the calls of the source. Rule for the calls: active = hit-call score of the fitted dose curve at least 0.9, where 1 is the maximum; inactive = score below 0.9.
Returns: one label drawn from yes (1) (active), no (0) (inactive)

Sample answers from the record:
[
  {
    "smiles repr": "C1CNCCN1",
    "group": "no (0)"
  },
  {
    "smiles repr": "CC/C=C\\CCOC(=O)c1ccccc1O",
    "group": "yes (1)"
  }
]

Kindly consider the entry below.
Data request: Give the logged outcome of this assay for the following compound: `c1ccc(Nc2cccc3ccccc23)cc1`
Data returned: yes (1)

###

Read-out: Monocyte Chemoattractant Protein-1 (MCP1), CCL2 (gene 6347)
Assay: BSK_CASM3C_MCP1: BioMAP Diversity Plus: CASM3C Assay for Monocyte Chemoattractant Protein-1 (MCP1) Biomarker Activity (AID 2283046);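 also: MCP-1 level quantified by ELISA 24 h after dosing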
Conditions: primary human coronary artery smooth muscle cells; actives raise or lower the signal
Activity calls are given as the source filed them. Rule for the calls: active = hit-call score of the fitted dose curve at least 0.9, where 1 is the maximum; inactive = score below 0.9.
Select the correct class. Options are YES (active), NO (inactive) and nothing else.

Data request: Hi, do you know how `C=CCCCCCCCCC=O` came out in this test?
Data returned: NO

Data request: Record request — test call for `COc1ccc(C(=O)c2ccccc2)c(O)c1`
Data returned: NO

Data request: Field: outcome | Entry: `c1ccc2sc(SSN3CCOCC3)nc2c1`
Data returned: YES

Data request: Identify the outcome logged in this assay for the molecule shown: `CCCCCCOC(=O)CCCCC(=O)OCCCCCC`
Data returned: NO

Data request: What call does the record list for `CC(C)CCCCCOC(=O)CS` ?
Data returned: NO

Data request: What classification did `CCCCCCC=O` end up with in this test?
Data returned: NO
